Test system: K562
assay_text: cell viability relative to vehicle control; higher = less cytotoxic;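 further: after 48 h exposure read by CellTiter-Glo luminescence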
condition_info: 10 µM; SRSF2 genotype: SRSF2 wt/wt
Quick rule for you: cell viability under 90% gets label 1, anything else gets label 0.

Lookup: Quick check: cell viability of CC(C)=CCC[C@](C)(O[C@@H]1O[C@H](CO)[C@@H](O)[C@H](O)[C@H]1O)[C@H]1CC[C@]2(C)[C@@H]1[C@H](O)C[C@@H]1[C@@]3(C)CC[C@H](O)C(C)(C)[C@@H]3CC[C@]12C [Ginsenoside CK] under 90%?
Found: label 1

Lookup: Please do the same for `CC(C)(C)c1cc(O)c(C(C)(C)C)cc1O` as well.
Found: label 0

Lookup: Please do the same for `Cc1nc2ccc(-n3ncc(C(=O)c4cc5ccccc5[nH]4)c3N)cc2[nH]1` as well.
Found: label 1

Lookup: Please do the same for `O=C(NCCS(=O)(=O)c1ccc(C(F)(F)F)cn1)c1ccc(Cl)cc1` as well.
Found: label 0

Lookup: Please do the same for `N#CC[C@H](C1CCCC1)n1cc(-c2ncnc3[nH]ccc23)cn1` as well.
Found: label 0

Lookup: Please do the same for `CCN(CC)CCCCNc1ncc2cc(-c3cc(OC)cc(OC)c3)c(NC(=O)NC(C)(C)C)nc2n1` as well.
Found: label 1

Lookup: Please do the same for O=c1c(-c2ccc(O)cc2)coc2cc(O)cc(O)c12 [Genistein] as well.
Found: label 0

====

System: MARIMO
assay_text: cell viability relative to vehicle control; higher = less cytotoxic
condition_info: 10 µM; SRSF2 genotype: SRSF2 wt/wt
Structures can show the parent of a compound that is named as a salt.
readout: cell viability (%)
Respond numerically; units are % and should not be typed.

Lookup: Give cell viability (MARIMO) of the following compound: `O=C(O)C=CCCCCCCCO`
Found: 105

Lookup: Please do the same for Cc1cc(C)nc(NS(=O)(=O)c2ccc(N)cc2)n1 [Sulfamethazine] as well.
Found: 109

Lookup: Please do the same for `OB1OCc2cc(F)ccc21` as well.
Found: 87.8

Lookup: Please do the same for `CS(=O)(=O)c1ccc(C2=C(c3ccccc3)C(=O)OC2)cc1` as well.
Found: 104

Lookup: Please do the same for `CCCCCCCCCCCCCCCCn1cc[n+](Cc2ccccc2)c1C` as well.
Found: 0.19

Lookup: Please do the same for CN(C)CCC=C1c2ccccc2CCc2ccccc21 [Amitriptyline HCl] as well.
Found: 83

Lookup: Please do the same for `CC(C)(NS(=O)(=O)c1ccc2c(Cl)cnc(N=C(N)N)c2c1)C(=O)O` as well.
Found: 111

Lookup: Please do the same for `O=C1C[C@@H](c2ccccc2)Oc2cc(O)cc(O)c21` as well.
Found: 99.8

Lookup: Please do the same for `CCC[C@H](NC(=O)[C@@H]1[C@H]2CCC[C@H]2CN1C(=O)[C@@H](NC(=O)[C@@H](NC(=O)c1cnccn1)C1CCCCC1)C(C)(C)C)C(=O)C(=O)NC1CC1` as well.
Found: 86.1

====

System: MARIMO
assay_text: cell viability relative to vehicle control; higher = less cytotoxic
condition_info: 10 µM; SRSF2 genotype: SRSF2 wt/wt
Where a name gives a salt, the structure may show the parent alone.
Quick rule for you: cell viability under 90% gets Met, anything else gets Not met.

Lookup: Quick check: cell viability of CCCCCCCCCCCCCCCC(=O)O[C@@H]1[C@@H](O)[C@@H](O)[C@@H]([C@H](NC(=O)[C@@H]2C[C@@H](CCC)CN2C)[C@H](C)Cl)O[C@@H]1SC [Clindamycin palmitate HCl] under 90%?
Found: Not met

Lookup: Please do the same for Nc1cccc2c1C(=O)N(C1CCC(=O)NC1=O)C2=O (stereo not drawn) [Pomalidomide] as well.
Found: Not met

Lookup: Please do the same for CCCc1cc(-c2nc(-c3ccc(C)cc3)cs2)ccn1 [Fatostatin] as well.
Found: Met

Lookup: Please do the same for COc1ccc(CC(C)NCC(O)c2ccc(O)c(NC=O)c2)cc1 (stereo not drawn) [Formoterol hemifumarate] as well.
Found: Not met

Lookup: Please do the same for O=c1n(CCCN2CCN(c3cccc(Cl)c3)CC2)nc2ccccn12 [Trazodone hydrochloride (Desyrel)] as well.
Found: Not met

Lookup: Please do the same for Cc1cc(NS(=O)(=O)c2ccc(N)cc2)no1 [Sulfamethoxazole sodium] as well.
Found: Not met

Lookup: Please do the same for CC(C)C(C(=O)O)N1C(=O)C(=Cc2ccc(Br)cc2)SC1=S (stereo not drawn) as well.
Found: Not met

Lookup: Please do the same for `O=C(Nc1ccc(Br)cc1)c1ccc(Br)c(S(=O)(=O)NCc2ccccc2)c1` as well.
Found: Not met

Lookup: Please do the same for CCCCCC(=O)O[C@]1(C(C)=O)CC[C@H]2[C@@H]3CCC4=CC(=O)CC[C@]4(C)[C@H]3CC[C@@]21C [Hydroxyprogesterone caproate] as well.
Found: Met

Lookup: Please do the same for `Cc1c(C(=O)N2CCOc3ccc(-c4ccc(N)nc4)cc3C2)ccc(S(C)(=O)=O)c1F` as well.
Found: Met

Lookup: Please do the same for `COc1cc(-c2cc(-c3cccc(O)c3)cnc2N)cc(OC)c1OC` as well.
Found: Met

Lookup: Please do the same for `N#Cc1ccc([C@H]2CCc3cncn32)c(F)c1` as well.
Found: Not met

Lookup: Please do the same for COC(c1ccccc1)(c1ccccc1)[C@H](Oc1nc(C)cc(C)n1)C(=O)O [Ambrisentan] as well.
Found: Not met

Lookup: Please do the same for `COc1ccc(Cn2c3ncnc4c(ncn4Cc4ccc(OC)cc4)c-3nc2=O)cc1` as well.
Found: Met

Lookup: Please do the same for COc1ccc(-c2coc3cc(O[C@@H]4O[C@H](CO)[C@@H](O)[C@H](O)[C@H]4O)ccc3c2=O)cc1O [Calycosin-7-O-beta-D-glucoside] as well.
Found: Not met

Lookup: Please do the same for COc1cc2c(cc1OC)[C@@H](Cc1ccc(O)c(Oc3cc4c(cc3OC)CCN(C)[C@@H]4Cc3ccc(O)cc3)c1)N(C)CC2 [Liensinine] as well.
Found: Met

Lookup: Please do the same for CCOc1ccccc1OCCN[C@H](C)Cc1ccc(OC)c(S(N)(=O)=O)c1 [Tamsulosin hydrochloride] as well.
Found: Not met

Lookup: Please do the same for `COC1(c2sc3c(N4CCOCC4)nc(-c4cnc(N)nc4)nc3c2C)COC1` as well.
Found: Met

Lookup: Please do the same for Cc1ccc(C(=O)Nc2ccc(CN3CCN(C)CC3)c(C(F)(F)F)c2)cc1C#Cc1cnc2[nH]ncc2c1 [GZD824 Dimesylate] as well.
Found: Met

Lookup: Please do the same for CCCCCOC(=O)Nc1nc(=O)n([C@@H]2O[C@H](C)[C@@H](O)[C@H]2O)cc1F [Capecitabine (Xeloda)] as well.
Found: Not met

Lookup: Please do the same for CCCCOCc1ccc(O)c(OC)c1 [Vanillyl Butyl Ether] as well.
Found: Not met

Lookup: Please do the same for `Cc1c(C(=O)NN2CCCCC2)nn(-c2ccc(Cl)cc2Cl)c1-c1ccc(Cl)cc1` as well.
Found: Not met

Lookup: Please do the same for Cn1cnc([N+](=O)[O-])c1Sc1ncnc2[nH]cnc12 [Azathioprine (Azasan, Imuran)] as well.
Found: Met

Lookup: Please do the same for CNc1nc(Nc2cnn(C3CCN(C4COC4)CC3F)c2Cl)ncc1C(F)(F)F (stereo not drawn) as well.
Found: Met

Lookup: Please do the same for CN1CC(=O)N2[C@H](c3ccc4c(c3)OCO4)c3[nH]c4ccccc4c3C[C@@H]2C1=O [Tadalafil (Cialis)] as well.
Found: Not met

Lookup: Please do the same for O=C1CC(c2c[nH]c3ccc(F)cc23)C(=O)N1 (stereo not drawn) as well.
Found: Not met

Lookup: Please do the same for CCC(C)(Oc1ccc(C2(c3ccc(OC(C)(CC)C(=O)O)cc3)CCCCC2)cc1)C(=O)O (stereo not drawn) [Clinofibrate] as well.
Found: Not met

Lookup: Please do the same for CCC(C)CC(C)CCCCCCCCC(=O)NC1CC(O)C(O)NC(=O)C2C(O)CCN2C(=O)C(C(O)CC(N)=O)NC(=O)C(C(O)C(O)c2ccc(O)cc2)NC(=O)C2CC(O)CN2C(=O)C(C(C)O)NC1=O (stereo not drawn) [Pneumocandin B0] as well.
Found: Not met

Values compiled from the supplement of paper PMC10981050.
